Reference source: the supplement of paper PMC10849652

- tested.on: ZW10 (UniProt O43264)
- Sequence (O43264 whole entry, looked up): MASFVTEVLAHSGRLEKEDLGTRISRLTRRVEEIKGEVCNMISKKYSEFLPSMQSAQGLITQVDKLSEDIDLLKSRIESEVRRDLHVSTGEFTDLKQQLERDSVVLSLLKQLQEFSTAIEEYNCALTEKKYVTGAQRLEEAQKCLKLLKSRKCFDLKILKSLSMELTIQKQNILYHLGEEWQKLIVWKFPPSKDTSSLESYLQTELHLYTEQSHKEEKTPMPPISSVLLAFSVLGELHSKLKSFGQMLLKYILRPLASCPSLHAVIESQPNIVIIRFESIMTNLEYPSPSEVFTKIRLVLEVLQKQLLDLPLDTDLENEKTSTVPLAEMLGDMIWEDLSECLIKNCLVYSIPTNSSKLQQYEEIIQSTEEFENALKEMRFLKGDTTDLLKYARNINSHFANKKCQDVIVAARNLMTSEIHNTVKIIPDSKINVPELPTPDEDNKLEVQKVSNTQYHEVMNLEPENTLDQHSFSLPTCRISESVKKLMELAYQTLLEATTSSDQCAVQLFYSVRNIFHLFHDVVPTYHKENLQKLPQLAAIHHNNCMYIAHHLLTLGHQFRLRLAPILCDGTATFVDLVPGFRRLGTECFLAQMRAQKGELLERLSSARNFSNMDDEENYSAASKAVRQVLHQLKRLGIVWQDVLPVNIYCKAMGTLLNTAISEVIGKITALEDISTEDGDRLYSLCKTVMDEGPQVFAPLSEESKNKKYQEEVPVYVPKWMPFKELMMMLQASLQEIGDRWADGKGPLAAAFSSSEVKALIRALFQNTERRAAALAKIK
- method.notes: log2 fold change, soluble protein after heating vs DMSO (PISA); higher = thermal stabilisation; K562 cells, 10 uM, 30 min; active = over 0.2 and 3.5 SD of the protein, either way, in both replicates (recomputed)
Of roughly 7,900 targets only a part is listed; those with a hit were picked by preference. About 0.6% of all pairs of compound and target were hits.
measured.endpoint: log2 fold change
Give the value as a plain number.

Solved cases (2 shown):
{"columns": ["line.notation", "measured.endpoint", "data.value"],
 "data": [
  ["NC1(Cc2ccc(Cl)cc2)CCN(c2ncnc3[nH]ccc23)CC1", "log2 fold change", -0.062],
  ["CS(=O)(=O)N1CCN(Cc2cc3nc(-c4cccc5[nH]ncc45)nc(N4CCOCC4)c3s2)CC1", "log2 fold change", 0.005]
]}

Now for the molecule whose log2 fold change we want.
Inquiry: Fill in: log2 fold change of `CN1CCN(CCOc2cc(OC3CCOCC3)c3c(Nc4c(Cl)ccc5c4OCO5)ncnc3c2)CC1` is ___
Reply text: -0.031

====

Below is a list of entries, each paired with its recorded log2 fold change value.
- tested.on: ZNF217 (UniProt O75362)
- Sequence (O75362 whole entry, looked up): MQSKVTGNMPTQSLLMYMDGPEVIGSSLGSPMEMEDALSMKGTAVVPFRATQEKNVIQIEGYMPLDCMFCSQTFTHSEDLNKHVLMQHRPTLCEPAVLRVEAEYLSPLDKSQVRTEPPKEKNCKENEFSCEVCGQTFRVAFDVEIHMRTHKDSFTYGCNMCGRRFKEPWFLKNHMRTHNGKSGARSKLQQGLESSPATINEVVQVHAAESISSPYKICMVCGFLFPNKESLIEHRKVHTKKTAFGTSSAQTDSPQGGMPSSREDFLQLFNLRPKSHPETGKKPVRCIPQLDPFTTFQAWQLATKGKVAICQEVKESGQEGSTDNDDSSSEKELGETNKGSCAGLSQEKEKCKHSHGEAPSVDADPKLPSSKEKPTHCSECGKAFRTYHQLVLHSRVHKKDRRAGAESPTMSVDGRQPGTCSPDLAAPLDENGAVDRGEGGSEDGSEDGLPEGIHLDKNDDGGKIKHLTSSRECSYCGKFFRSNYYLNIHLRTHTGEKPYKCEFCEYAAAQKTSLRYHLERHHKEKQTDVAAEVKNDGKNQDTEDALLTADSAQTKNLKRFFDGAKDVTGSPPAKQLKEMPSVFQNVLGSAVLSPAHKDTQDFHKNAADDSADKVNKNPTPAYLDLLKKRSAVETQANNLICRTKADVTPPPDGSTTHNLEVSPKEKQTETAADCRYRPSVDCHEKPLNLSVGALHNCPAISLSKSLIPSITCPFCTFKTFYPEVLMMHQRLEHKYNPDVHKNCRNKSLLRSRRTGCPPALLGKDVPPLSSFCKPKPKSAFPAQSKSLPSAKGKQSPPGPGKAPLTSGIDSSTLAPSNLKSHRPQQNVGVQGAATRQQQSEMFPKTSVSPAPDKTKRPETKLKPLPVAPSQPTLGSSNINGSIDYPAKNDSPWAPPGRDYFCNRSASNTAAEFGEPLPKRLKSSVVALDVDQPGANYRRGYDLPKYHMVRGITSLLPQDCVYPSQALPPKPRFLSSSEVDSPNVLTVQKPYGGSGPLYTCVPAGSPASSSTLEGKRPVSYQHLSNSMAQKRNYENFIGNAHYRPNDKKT
- method.notes: log2 fold change, soluble protein after heating vs DMSO (PISA); higher = thermal stabilisation; K562 cells, 10 uM, 30 min; active = over 0.2 and 3.5 SD of the protein, either way, in both replicates (recomputed)
About 7,900 targets were measured; listed, in parts, are those with a hit and a random draw of the rest. About 0.6% of all pairs of compound and target were hits.
Give the value as a plain number.

Solved cases (5 shown):
{"columns": ["compound", "data.value"],
 "data": [
  ["CNc1nc(-c2ccc3c(N)n[nH]c3c2)cc(N2C[C@@H](C(=O)NC3CCCCC3)CC[C@H]2C)n1", -0.183],
  ["NC1(Cc2ccc(Cl)cc2)CCN(c2ncnc3[nH]ccc23)CC1", 0.197],
  ["Cc1ncc(-c2ccnc(Nc3ccc(S(C)(=O)=O)cc3)n2)n1C(C)C", -0.046],
  ["CS(=O)(=O)c1ccc(-c2cnc(N)c(C(=O)Nc3ccccc3)n2)cc1", -0.037],
  ["CON(C)C(=O)N1N=C(c2cc(F)ccc2F)S[C@@]1(CCCN)c1ccccc1", -0.045]
]}

Inquiry: Fill in: log2 fold change of `O=C1NC(=O)C(c2cnc3ccccn23)=C1c1cn2c3c(cc(F)cc13)CN(C(=O)N1CCCCC1)CC2` is ___
Reply text: -0.102

Inquiry: Fill in: log2 fold change of `CS(=O)(=O)N1CCN(Cc2cc3nc(-c4cccc5[nH]ncc45)nc(N4CCOCC4)c3s2)CC1` is ___
Reply text: -0.038

Inquiry: Fill in: log2 fold change of `FC(F)(F)c1ccc(/C=C/c2nc(COc3ccc(CCCCn4ccnn4)cc3)co2)cc1` is ___
Reply text: 0.08

Inquiry: Fill in: log2 fold change of CC1=C(C(=O)Nc2cc3cn[nH]c3cc2F)C(c2ccc(C(F)(F)F)cc2)CC(=O)N1 (centres undefined) is ___
Reply text: -0.033

====

- tested.on: YBX1 (UniProt P67809)
- Sequence (P67809 whole entry, looked up): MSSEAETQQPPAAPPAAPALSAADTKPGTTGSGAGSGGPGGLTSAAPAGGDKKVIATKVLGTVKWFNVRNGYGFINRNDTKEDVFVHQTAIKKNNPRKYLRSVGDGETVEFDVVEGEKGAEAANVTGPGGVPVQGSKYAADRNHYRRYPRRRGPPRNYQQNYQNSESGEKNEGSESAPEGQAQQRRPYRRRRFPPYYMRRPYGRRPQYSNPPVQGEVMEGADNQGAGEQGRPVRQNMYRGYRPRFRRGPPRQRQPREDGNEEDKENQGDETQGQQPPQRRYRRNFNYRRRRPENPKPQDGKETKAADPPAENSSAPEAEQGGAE
- method.notes: log2 fold change, soluble protein after heating vs DMSO (PISA); higher = thermal stabilisation; K562 cells, 10 uM, 30 min; active = over 0.2 and 3.5 SD of the protein, either way, in both replicates (recomputed)
The full data set covers some 7,900 targets. This sample favours those with a hit. About 0.6% of all pairs of compound and target were hits.
Assign Met to entries whose log2 fold change meets or exceeds 0.08; assign Not met to the rest.

Sample answers from the record:
{"columns": ["molecule", "label.class"],
 "data": [
  ["Cc1cccc(CC(=O)N2CCc3c2ccc(-c2cn(C)c4ncnc(N)c24)c3F)n1", "Not met"],
  ["CC(C)c1cnn2c(NCc3ccccc3)cc(NCCCCCCN)nc12", "Not met"],
  ["O=C1NC(=O)C(c2cnc3ccccn23)=C1c1cn2c3c(cc(F)cc13)CN(C(=O)N1CCCCC1)CC2", "Met"],
  ["Cc1cc(Nc2cc(N3CCN(C)CC3)nc(Sc3ccc(NC(=O)C4CC4)cc3)n2)n[nH]1 [tozasertib]", "Not met"],
  ["COC(=O)[C@H](CCSC)NC(=O)c1ccc(NC[C@@H](N)CS)cc1-c1ccccc1", "Met"],
  ["O=C(Nc1nc2ccccc2n1CCN1CCOCC1)c1cccc([N+](=O)[O-])c1 [IRAK-1-4 Inhibitor I]", "Not met"]
]}

Now look at this one.
Inquiry: Hi team, for CS(=O)(=O)CCNCc1ccc(-c2ccc3ncnc(Nc4ccc(OCc5cccc(F)c5)c(Cl)c4)c3c2)o1 [lapatinib] , is the recorded log2 fold change at or above 0.08?
Reply text: Met

====

- tested.on: ZDHHC20 (UniProt Q5W0Z9)
- Sequence (Q5W0Z9 whole entry, looked up): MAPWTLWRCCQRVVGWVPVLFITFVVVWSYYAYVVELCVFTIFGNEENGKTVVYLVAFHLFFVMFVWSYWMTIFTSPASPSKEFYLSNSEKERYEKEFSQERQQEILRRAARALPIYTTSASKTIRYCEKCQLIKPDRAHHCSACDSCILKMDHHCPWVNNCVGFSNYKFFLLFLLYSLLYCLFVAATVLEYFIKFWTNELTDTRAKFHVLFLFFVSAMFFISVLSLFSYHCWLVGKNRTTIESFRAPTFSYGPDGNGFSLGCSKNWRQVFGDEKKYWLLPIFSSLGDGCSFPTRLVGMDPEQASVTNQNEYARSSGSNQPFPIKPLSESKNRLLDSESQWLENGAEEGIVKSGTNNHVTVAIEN
- method.notes: log2 fold change, soluble protein after heating vs DMSO (PISA); higher = thermal stabilisation; K562 cells, 10 uM, 30 min; active = over 0.2 and 3.5 SD of the protein, either way, in both replicates (recomputed)
About 7,900 targets were measured; listed, in parts, are those with a hit and a random draw of the rest. About 0.6% of all pairs of compound and target were hits.
Category scheme (log2 fold change): low interval = under -0.03, middle interval = from -0.03 up to 0.02, high interval = 0.02 and over

{"columns": ["line.notation", "tested.on", "label.class"],
 "data": [
  ["C[C@H](Nc1ncnc2nc[nH]c12)c1cc2cccc(Cl)c2c(=O)n1-c1ccccc1", "ZDHHC20 (UniProt Q5W0Z9)", "high interval"],
  ["CC(C)N(C[C@H]1O[C@@H](n2cnc3c(N)ncnc32)[C@H](O)[C@@H]1O)[C@H]1C[C@@H](CCc2nc3cc(C(C)(C)C)ccc3[nH]2)C1", "ZDHHC20 (UniProt Q5W0Z9)", "high interval"],
  ["CNCc1ccc(-c2[nH]c3cc(F)cc4c3c2CCNC4=O)cc1", "ZDHHC20 (UniProt Q5W0Z9)", "high interval"],
  ["C[C@@H](Oc1cc(-c2cnn(C3CCNCC3)c2)cnc1N)c1c(Cl)ccc(F)c1Cl", "ZDHHC20 (UniProt Q5W0Z9)", "middle interval"],
  ["Cc1ccc(C(=O)N(CCCN)[C@@H](c2nc3cc(Cl)ccc3c(=O)n2Cc2ccccc2)C(C)C)cc1", "ZDHHC20 (UniProt Q5W0Z9)", "low interval"],
  ["CCCc1cc(C)[nH]c(=O)c1CNC(=O)c1cc(-c2ccnc(N3CCN(C)CC3)c2)cc2c1cnn2C(C)C", "ZDHHC20 (UniProt Q5W0Z9)", "low interval"],
  ["COc1cc2nc(-c3cc(F)ccc3O)nc(N[C@@H]3CNC[C@H]3C(C)(C)O)c2cc1OC", "ZDHHC20 (UniProt Q5W0Z9)", "low interval"],
  ["Cc1ccc(NC(=O)c2cccc(C(C)(C)C#N)c2)cc1Nc1ccc2ncn(C)c(=O)c2c1", "ZDHHC20 (UniProt Q5W0Z9)", "low interval"]
]}

Inquiry: Which category does the recorded log2 fold change put `CCN(CCCOc1ccc2c(Nc3cc(CC(=O)Nc4cccc(F)c4)[nH]n3)ncnc2c1)CCOP(=O)(O)O` in?
Reply text: high interval

Inquiry: Which category does the recorded log2 fold change put `c1cn2cc(-c3ccc4cn[nH]c4c3)nc(Nc3ccc(N4CCOCC4)cc3)c2n1` in?
Reply text: middle interval

Inquiry: Which category does the recorded log2 fold change put `Cc1ccc(-n2nc(C(C)(C)C)cc2NC(=O)Nc2ccc(OCCN3CCOCC3)c3ccccc23)cc1` in?
Reply text: middle interval

Inquiry: Which category does the recorded log2 fold change put `O=C(CCCCCCNC(=O)c1cnc(N(c2ccccc2)c2ccccc2Cl)nc1)NO` in?
Reply text: middle interval

Inquiry: Which category does the recorded log2 fold change put `Cc1ncc(-c2ccnc(Nc3ccc(S(C)(=O)=O)cc3)n2)n1C(C)C` in?
Reply text: high interval

Inquiry: Which category does the recorded log2 fold change put `CCCS(=O)(=O)Nc1ccc(F)c(C(=O)c2c[nH]c3ncc(Cl)cc23)c1F` in?
Reply text: high interval

Inquiry: Which category does the recorded log2 fold change put `CNc1nc(-c2ccc3c(N)n[nH]c3c2)cc(N2C[C@@H](C(=O)NC3CCCCC3)CC[C@H]2C)n1` in?
Reply text: high interval

====

- tested.on: ZNF622 (UniProt Q969S3)
- Sequence (Q969S3 whole entry, looked up): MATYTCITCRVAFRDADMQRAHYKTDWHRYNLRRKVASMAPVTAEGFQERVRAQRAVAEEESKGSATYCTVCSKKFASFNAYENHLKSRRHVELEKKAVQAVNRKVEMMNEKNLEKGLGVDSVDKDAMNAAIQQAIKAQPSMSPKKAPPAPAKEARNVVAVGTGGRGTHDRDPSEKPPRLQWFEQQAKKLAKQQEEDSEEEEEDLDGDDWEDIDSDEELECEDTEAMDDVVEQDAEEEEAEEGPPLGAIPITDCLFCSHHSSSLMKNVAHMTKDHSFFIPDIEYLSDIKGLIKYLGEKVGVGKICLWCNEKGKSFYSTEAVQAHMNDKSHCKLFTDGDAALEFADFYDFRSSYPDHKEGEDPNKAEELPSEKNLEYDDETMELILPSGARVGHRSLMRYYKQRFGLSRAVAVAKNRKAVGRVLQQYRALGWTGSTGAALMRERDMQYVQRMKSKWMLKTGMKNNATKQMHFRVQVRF
- method.notes: log2 fold change, soluble protein after heating vs DMSO (PISA); higher = thermal stabilisation; K562 cells, 10 uM, 30 min; active = over 0.2 and 3.5 SD of the protein, either way, in both replicates (recomputed)
Targets with a hit are over-represented here; the source holds about 7,900 in all. About 0.6% of all pairs of compound and target were hits.
Mark one answer only. Choices: true (1) (active), false (0) (inactive)

Sample answers from the record:
{"columns": ["compound", "label.class"],
 "data": [
  ["COC(=O)N[C@@H](C)CNc1nccc(-c2cn(C(C)C)nc2-c2cc(Cl)cc(NS(C)(=O)=O)c2F)n1 [encorafenib]", "false (0)"],
  ["Cc1ccc(NC(=O)c2cccc(C(C)(C)C#N)c2)cc1Nc1ccc2ncn(C)c(=O)c2c1", "false (0)"],
  ["C[C@@H](N)c1ccc(C(=O)Nc2ccnc3[nH]ccc23)cc1", "false (0)"]
]}

Inquiry: For `NC1(Cc2ccc(Cl)cc2)CCN(c2ncnc3[nH]ccc23)CC1` , which call appears in the assay record?
Reply text: true (1)

Inquiry: For `CN(C)CC(=O)Nc1ccc2[nH]c(=O)c3ccccc3c2c1` , which call appears in the assay record?
Reply text: false (0)

Inquiry: For Cc1nc(Nc2ncc(C(=O)Nc3c(C)cccc3Cl)s2)cc(N2CCN(CCO)CC2)n1 [dasatinib] , which call appears in the assay record?
Reply text: false (0)

Inquiry: For `NC(=O)c1ccc2nc(-c3ccc(Oc4ccc(Cl)cc4)cc3)[nH]c2c1` , which call appears in the assay record?
Reply text: false (0)

Inquiry: For `CCn1cc(-c2ccnc3[nH]c(-c4cccc(CN(C)C)c4)cc23)c(-c2ccc(NC(=O)N(C)C)cc2)n1` , which call appears in the assay record?
Reply text: false (0)
